# Target system: murine CDH6 protein (mCDH6 ECD-his) (mouse) (UniProt P97326)
# Sequence (P97326 19-615 limits assumed, form in doubt): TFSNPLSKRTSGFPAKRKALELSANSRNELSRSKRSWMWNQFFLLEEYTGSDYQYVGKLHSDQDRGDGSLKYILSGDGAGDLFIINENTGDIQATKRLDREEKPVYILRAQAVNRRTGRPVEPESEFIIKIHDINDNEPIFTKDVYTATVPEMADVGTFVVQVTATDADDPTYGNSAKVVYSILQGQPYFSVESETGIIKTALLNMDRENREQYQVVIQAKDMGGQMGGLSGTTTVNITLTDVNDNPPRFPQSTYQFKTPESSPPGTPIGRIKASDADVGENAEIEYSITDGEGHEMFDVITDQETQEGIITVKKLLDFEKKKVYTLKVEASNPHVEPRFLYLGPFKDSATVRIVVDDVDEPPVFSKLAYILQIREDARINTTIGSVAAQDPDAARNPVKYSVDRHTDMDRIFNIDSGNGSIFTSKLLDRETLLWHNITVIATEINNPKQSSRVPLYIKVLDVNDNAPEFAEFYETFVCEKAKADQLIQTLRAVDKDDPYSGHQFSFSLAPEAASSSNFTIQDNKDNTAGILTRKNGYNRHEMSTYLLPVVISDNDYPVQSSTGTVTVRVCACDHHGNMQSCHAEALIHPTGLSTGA
# Protocol details: ELISA, antigen coated
Max OD450 vs 2 OD450: less than gives Met; not less than gives Not met.

Max OD450 under 2 OD450? Item: CHI-CDH6-3 (antibody, human IgG1, kappa, V domains shown) VH: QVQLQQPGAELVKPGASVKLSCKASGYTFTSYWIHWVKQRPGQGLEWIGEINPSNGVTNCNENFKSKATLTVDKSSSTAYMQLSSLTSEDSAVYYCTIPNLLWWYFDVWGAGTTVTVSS VL: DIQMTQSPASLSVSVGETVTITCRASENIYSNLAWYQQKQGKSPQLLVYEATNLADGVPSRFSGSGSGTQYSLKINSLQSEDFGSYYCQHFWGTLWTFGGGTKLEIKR Not met

Max OD450 under 2 OD450? Item: CHI-CDH6-5 (antibody, human IgG1, kappa, V domains shown) VH: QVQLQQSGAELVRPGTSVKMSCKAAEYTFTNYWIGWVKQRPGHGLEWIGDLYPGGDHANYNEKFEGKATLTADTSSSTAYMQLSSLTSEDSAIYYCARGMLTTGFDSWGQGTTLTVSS VL: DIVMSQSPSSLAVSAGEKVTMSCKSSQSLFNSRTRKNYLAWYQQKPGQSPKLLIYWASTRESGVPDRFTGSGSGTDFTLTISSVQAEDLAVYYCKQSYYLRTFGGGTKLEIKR Met

Max OD450 under 2 OD450? Item: CHI-CDH6-11 (antibody, human IgG1, kappa, V domains shown) VH: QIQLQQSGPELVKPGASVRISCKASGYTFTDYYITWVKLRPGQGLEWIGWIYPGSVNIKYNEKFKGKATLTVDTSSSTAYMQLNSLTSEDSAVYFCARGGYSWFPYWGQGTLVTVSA VL: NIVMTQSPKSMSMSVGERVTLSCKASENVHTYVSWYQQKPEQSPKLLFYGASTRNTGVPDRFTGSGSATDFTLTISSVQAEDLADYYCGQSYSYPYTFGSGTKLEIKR Met

Max OD450 under 2 OD450? Item: DS-H01L02 (antibody, human IgG1, kappa, V domains shown) VH: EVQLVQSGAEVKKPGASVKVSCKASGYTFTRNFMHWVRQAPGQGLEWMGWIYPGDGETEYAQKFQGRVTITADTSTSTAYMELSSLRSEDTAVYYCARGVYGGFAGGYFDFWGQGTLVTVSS VL: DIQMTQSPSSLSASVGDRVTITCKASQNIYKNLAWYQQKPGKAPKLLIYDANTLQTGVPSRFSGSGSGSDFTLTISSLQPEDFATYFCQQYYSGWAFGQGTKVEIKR Met

Max OD450 under 2 OD450? Item: CHI-CDH6-13 (antibody, human IgG1, kappa, V domains shown) VH: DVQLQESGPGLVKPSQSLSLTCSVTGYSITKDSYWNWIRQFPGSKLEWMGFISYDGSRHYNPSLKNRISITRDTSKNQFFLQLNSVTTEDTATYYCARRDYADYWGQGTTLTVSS VL: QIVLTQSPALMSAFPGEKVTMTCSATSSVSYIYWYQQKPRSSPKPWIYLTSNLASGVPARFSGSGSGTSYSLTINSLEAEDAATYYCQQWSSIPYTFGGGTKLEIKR Not met

Max OD450 under 2 OD450? Item: CHI-CDH6-9 (antibody, human IgG1, kappa, V domains shown) VH: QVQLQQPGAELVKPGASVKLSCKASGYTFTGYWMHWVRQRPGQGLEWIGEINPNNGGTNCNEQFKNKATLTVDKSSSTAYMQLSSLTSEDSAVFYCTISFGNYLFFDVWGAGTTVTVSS VL: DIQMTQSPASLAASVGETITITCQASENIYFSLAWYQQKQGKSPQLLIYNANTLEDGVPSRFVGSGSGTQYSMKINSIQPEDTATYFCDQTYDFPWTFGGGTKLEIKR Not met
